assay: Oral pharmacokinetic study of 2HF in BALB/c mouse blood (HPLC-MS/MS, non-compartmental analysis)
Type: in vivo
reported conditions: mouse; BALB/c mice, single oral dose 10 mg/kg, whole blood; read-out: Vd/F, volume of distribution
measurement label: Vd/F (L)

>  <compound>
O=C1CC(c2ccccc2O)Oc2ccccc21 (stereo not shown) [2HF, 2′-Hydroxyflavanone]

>  <endpoint result>
2.55

$$$$

###

assay: Oral pharmacokinetic study of 2HF in BALB/c mouse blood (HPLC-MS/MS, non-compartmental analysis)
Type: in vivo
reported conditions: mouse; BALB/c mice, single oral dose 10 mg/kg, whole blood, NCA; read-out: Kel, elimination rate constant (converted)
measurement label: k el (s⁻¹)

>  <compound>
O=C1CC(c2ccccc2O)Oc2ccccc21 (stereo not shown) [2HF, 2′-Hydroxyflavanone]

>  <measurement label>
k el

>  <unit of measure>
s⁻¹

>  <endpoint result>
0.000118

$$$$
